Hello, the source for this data is PubChem BioAssay AID1963972, in case you need it.

Reported viability, T/C by item:
# Tested on: 945468-187-T-J2-PDC spheroids viability
# ASSAY_REMARKS: Anticancer human tumor 945468-187-T-J2-PDC patient-derived rectal carcinoma cell line growth inhibition [PI3K]
# APPLIED_CONDITIONS: second compound 0.00316 µM; first compound 10 µM; stronger effect = lower value; spheroids with HUVEC and MSC
Report the figure in % without appending any unit label.

The recorded viability, T/C for entry C#Cc1c(F)ccc2cc(O)cc(-c3ncc4c(N5CC6CCC(C5)N6)nc(OCC56CCCN5CC(F)C6)nc4c3F)c12 (configuration not stated) + CC(Nc1ccc2c(c1)OCCn1cc(N3C(=O)OCC3C(F)F)nc1-2)C(N)=O equals 96.5

viability, T/C for CNC(=O)c1ccc(N2C(=S)N(c3ccc(C#N)c(C(F)(F)F)c3)C(=O)C2(C)C)cc1F + COc1c(OCCCN2CCOCC2)ccc2c3n(c(=NC(=O)c4cnc(N)nc4)nc12)CCN3 is 80

Entry under test: C#Cc1c(F)ccc2cc(O)cc(-c3ncc4c(N5CC6CCC(C5)N6)nc(OCC56CCCN5CC(F)C6)nc4c3F)c12 (configuration not stated) + COc1c(OCCCN2CCOCC2)ccc2c3n(c(=NC(=O)c4cnc(N)nc4)nc12)CCN3 . Its viability, T/C was 94.1

Further cases:
# viability, T/C of Cn1ncc(Cl)c1-c1cc(C(=O)NC(CN)Cc2cccc(F)c2)sc1Cl (configuration not stated) + COc1c(OCCCN2CCOCC2)ccc2c3n(c(=NC(=O)c4cnc(N)nc4)nc12)CCN3 = 50.6

viability, T/C in this record for CCCS(=O)(=O)Nc1ccc(F)c(C(=O)c2c[nH]c3ncc(-c4ccc(Cl)cc4)cc23)c1F + CC(Nc1ccc2c(c1)OCCn1cc(N3C(=O)OCC3C(F)F)nc1-2)C(N)=O : 53.6

Kindly note the recorded viability, T/C for CC1(C)CCC(Nc2ncc(C(F)(F)F)c(-c3c[nH]c4c(P(C)(C)=O)c(C#N)ccc34)n2)CN1 (configuration not stated) + CC(Nc1ccc2c(c1)OCCn1cc(N3C(=O)OCC3C(F)F)nc1-2)C(N)=O , which is 49.6

Record Cn1nccc1Nc1nccc(-c2ccn(C(CO)c3ccc(Cl)c(F)c3)c(=O)c2)n1 (configuration not stated) + CC(Nc1ccc2c(c1)OCCn1cc(N3C(=O)OCC3C(F)F)nc1-2)C(N)=O , field viability, T/C: 79.9

viability, T/C recorded for this compound, CC(C)NCC(C(=O)N1CCN(c2ncnc3c2C(C)CC3O)CC1)c1ccc(Cl)cc1 (configuration not stated) + COc1c(OCCCN2CCOCC2)ccc2c3n(c(=NC(=O)c4cnc(N)nc4)nc12)CCN3 , is 90.3

C[C@@H](NC(=O)c1ncnc(N)c1Cl)c1ncc(C(=O)Nc2cc(C(F)(F)F)c(Cl)cn2)s1 + COc1c(OCCCN2CCOCC2)ccc2c3n(c(=NC(=O)c4cnc(N)nc4)nc12)CCN3 has a reported viability, T/C of 102

GET /value?item= CNC(=O)c1ccc(N2C(=S)N(c3ccc(C#N)c(C(F)(F)F)c3)C(=O)C2(C)C)cc1F + CC(Nc1ccc2c(c1)OCCn1cc(N3C(=O)OCC3C(F)F)nc1-2)C(N)=O &field=viability, T/C returns 80.1

In plain terms, CC(C)NCC(C(=O)N1CCN(c2ncnc3c2C(C)CC3O)CC1)c1ccc(Cl)cc1 (configuration not stated) + CC(Nc1ccc2c(c1)OCCn1cc(N3C(=O)OCC3C(F)F)nc1-2)C(N)=O has a documented viability, T/C of 99.3

Input CC(Cn1ccc(-c2ccc(C#N)c(Cl)c2)n1)NC(=O)c1cc(C(C)O)[nH]n1 (configuration not stated) + CC(Nc1ccc2c(c1)OCCn1cc(N3C(=O)OCC3C(F)F)nc1-2)C(N)=O . Output viability, T/C: 110

###

# Test system: 945468-187-T-J2-PDC spheroids viability
# ASSAY_REMARKS: Anticancer human tumor 945468-187-T-J2-PDC cell line growth inhibition [PI3K];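 also: spheroids exposed to compounds for seven days before reading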
# APPLIED_CONDITIONS: second compound 0.01 µM; first compound 3.16 µM; stronger effect = lower value; spheroids with HUVEC and MSC
# maps each entry to its viability, T/C
Express the result in % but write the number alone.

Some solved entries appear below for comparison.
Value of measured viability, T/C for the entry Cn1ncc(Cl)c1-c1cc(C(=O)NC(CN)Cc2cccc(F)c2)sc1Cl (stereo not given) + COc1c(OCCCN2CCOCC2)ccc2c3n(c(=NC(=O)c4cnc(N)nc4)nc12)CCN3 : 77.2

Lookup result for CC1(C)CCC(CN2CCN(c3ccc(C(=O)NS(=O)(=O)c4ccc(NCC5CCOCC5)c([N+](=O)[O-])c4)c(Oc4cnc5[nH]ccc5c4)c3)CC2)=C(c2ccc(Cl)cc2)C1 + CC(Nc1ccc2c(c1)OCCn1cc(N3C(=O)OCC3C(F)F)nc1-2)C(N)=O ; measured viability, T/C: 89.4

---
Documented viability, T/C of Cn1nccc1Nc1nccc(-c2ccn(C(CO)c3ccc(Cl)c(F)c3)c(=O)c2)n1 (stereo not given) + CC(Nc1ccc2c(c1)OCCn1cc(N3C(=O)OCC3C(F)F)nc1-2)C(N)=O : 91.9

The recorded viability, T/C for entry C#Cc1c(F)ccc2cc(O)cc(-c3ncc4c(N5CC6CCC(C5)N6)nc(OCC56CCCN5CC(F)C6)nc4c3F)c12 (stereo not given) + CC(Nc1ccc2c(c1)OCCn1cc(N3C(=O)OCC3C(F)F)nc1-2)C(N)=O equals 103

For this molecule ( CNC(=O)c1ccc(N2C(=S)N(c3ccc(C#N)c(C(F)(F)F)c3)C(=O)C2(C)C)cc1F + COc1c(OCCCN2CCOCC2)ccc2c3n(c(=NC(=O)c4cnc(N)nc4)nc12)CCN3 ), measured viability, T/C is 90.9

###

# Test system: 945468-187-T-J2-PDC spheroids viability
# ASSAY_REMARKS: Anticancer human tumor 945468-187-T-J2-PDC cell line growth inhibition [PI3K];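 also: spheroids exposed to compounds for seven days before reading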
# APPLIED_CONDITIONS: curve of first compound; second compound 0.0316 µM; spheroids with HUVEC and MSC
The entries below come with measured IC50 values attached.

# example entries with known answers
Sample Cn1ncc(Cl)c1-c1cc(C(=O)NC(CN)Cc2cccc(F)c2)sc1Cl (stereo unspecified) + CC(Nc1ncnc2nc[nH]c12)c1cc2cccc(Cl)c2c(=O)n1-c1ccccc1 ; IC50 observed: > 10 µM

molecule CC(C)NCC(C(=O)N1CCN(c2ncnc3c2C(C)CC3O)CC1)c1ccc(Cl)cc1 (stereo unspecified) + Cc1nc(NC(=O)N2CCCC2C(N)=O)sc1-c1ccnc(C(C)(C)C(F)(F)F)c1 , IC50 observed: > 10 µM

// field: IC50; key: CCCS(=O)(=O)Nc1ccc(F)c(C(=O)c2c[nH]c3ncc(-c4ccc(Cl)cc4)cc23)c1F + COc1c(OCCCN2CCOCC2)ccc2c3n(c(=NC(=O)c4cnc(N)nc4)nc12)CCN3 ; value = 5.58 µM

// CC1(C)CCC(Nc2ncc(C(F)(F)F)c(-c3c[nH]c4c(P(C)(C)=O)c(C#N)ccc34)n2)CN1 (stereo unspecified) + CC(Nc1ccc2c(c1)OCCn1cc(N3C(=O)OCC3C(F)F)nc1-2)C(N)=O : IC50 value = 2.11 µM

Others:
IC50 in this record for C[C@@H](NC(=O)c1ncnc(N)c1Cl)c1ncc(C(=O)Nc2cc(C(F)(F)F)c(Cl)cn2)s1 + CC(Nc1ccc2c(c1)OCCn1cc(N3C(=O)OCC3C(F)F)nc1-2)C(N)=O : > 10 µM

IC50 reading for CC(C)n1nc(-c2ccc3oc(N)nc3c2)c2c(N)ncnc21 + Cc1nc(NC(=O)N2CCCC2C(N)=O)sc1-c1ccnc(C(C)(C)C(F)(F)F)c1 : > 0.1 µM

Looking up C#Cc1c(F)ccc2cc(O)cc(-c3ncc4c(N5CC6CCC(C5)N6)nc(OCC56CCCN5CC(F)C6)nc4c3F)c12 (stereo unspecified) + CC(Nc1ncnc2nc[nH]c12)c1cc2cccc(Cl)c2c(=O)n1-c1ccccc1 , I found its IC50 recorded as > 10 µM

Data point: Cn1ncnc1[C@H]1c2n[nH]c(=O)c3cc(F)cc(c23)N[C@@H]1c1ccc(F)cc1 + Cc1nc(NC(=O)N2CCCC2C(N)=O)sc1-c1ccnc(C(C)(C)C(F)(F)F)c1 ; IC50 = > 0.1 µM

Quick note, IC50 for C[C@@H](NC(=O)c1ncnc(N)c1Cl)c1ncc(C(=O)Nc2cc(C(F)(F)F)c(Cl)cn2)s1 + Cc1nc(NC(=O)N2CCCC2C(N)=O)sc1-c1ccnc(C(C)(C)C(F)(F)F)c1 landed at > 10 µM

# IC50 of CC1(C)CCC(CN2CCN(c3ccc(C(=O)NS(=O)(=O)c4ccc(NCC5CCOCC5)c([N+](=O)[O-])c4)c(Oc4cnc5[nH]ccc5c4)c3)CC2)=C(c2ccc(Cl)cc2)C1 + CC(Nc1ccc2c(c1)OCCn1cc(N3C(=O)OCC3C(F)F)nc1-2)C(N)=O = 7.6 µM

// field: IC50; key: C=CC(=O)N1CCN(c2nc(=O)n(-c3c(C)ccnc3C(C)C)c3nc(-c4c(O)cccc4F)c(F)cc23)C(C)C1 (stereo unspecified) + Cc1nc(NC(=O)N2CCCC2C(N)=O)sc1-c1ccnc(C(C)(C)C(F)(F)F)c1 ; value = > 10 µM
